Target: 5-hydroxytryptamine receptor 2C (Homo sapiens, UniProt P28335)
Sequence (P28335 whole entry): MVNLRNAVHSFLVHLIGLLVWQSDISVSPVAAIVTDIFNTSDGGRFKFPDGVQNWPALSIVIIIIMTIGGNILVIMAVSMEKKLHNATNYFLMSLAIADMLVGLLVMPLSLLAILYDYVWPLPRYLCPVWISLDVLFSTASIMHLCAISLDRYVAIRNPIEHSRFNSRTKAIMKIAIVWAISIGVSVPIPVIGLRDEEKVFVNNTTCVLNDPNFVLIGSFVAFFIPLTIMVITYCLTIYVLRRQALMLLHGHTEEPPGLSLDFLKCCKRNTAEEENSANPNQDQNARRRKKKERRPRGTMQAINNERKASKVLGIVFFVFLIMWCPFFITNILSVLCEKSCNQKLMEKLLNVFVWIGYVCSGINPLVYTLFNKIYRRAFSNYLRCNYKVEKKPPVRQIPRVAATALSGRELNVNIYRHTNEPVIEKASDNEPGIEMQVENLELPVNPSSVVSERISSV
Assay: Displacement of [3H]Mesulergine from human recombinant serotonin 5-HT2C expressed in CHO-K1 cells
pIC50: −log10 of the molar value.
ASSAY ENDPOINT: pIC50

Examples with their reported pIC50 follow.
COMPOUND: CCc1nnc2c(NC)nc3ccccc3n12
pIC50: 5.29

COMPOUND: CC(=O)N(CCN(C)C)c1nc2cc3c(cc2s1)OCO3
pIC50: 5.56

COMPOUND: COc1cc2c(cc1OC)C1CCCN1C(C)(C)C2 (stereo not drawn)
pIC50: < 5.00

COMPOUND: Cn1ncc2c(Nc3ccc(F)cc3)nc(NCCN3CCOCC3)nc21
pIC50: < 5.00

COMPOUND: C=CCNc1nc(Nc2ccc(F)cc2)c2cnn(C)c2n1
pIC50: < 5.00

COMPOUND: CCc1nnc2c(NCCC3=CCCCC3)nc3ccccc3n12
pIC50: < 5.00

// pIC50 lookup, key: `COCCNc1nc(Nc2ccc(F)cc2)c2cnn(C)c2n1`
< 5.00

// pIC50 lookup, key: `CN(C)CCNC(=O)c1ccc(-n2ccc3ccccc32)s1`
6.65

###

molecular target: 5-hydroxytryptamine receptor 2C (Homo sapiens); assay: Displacement of [3H]Mesulergine from human recombinant serotonin 5-HT2C expressed in CHO-K1 cells; assay type: cell-based
ASSAY ENDPOINT: pIC50
Would you please state pIC50, meaning minus log10 of the concentration in mol/L, as a bare number?

STRUCTURE NOTATION: COC(=O)c1cnn2c(O)nc(C3CCNCC3)nc12
pIC50: 6.23

Moving on to the next compound.
Enter reported pIC50 observed with 5-hydroxytryptamine receptor 2C (Homo sapiens) for `Cc1ccc2onc(CNC(=O)N3CCN(C)CC3)c2c1`
5.05

###

Molecular target: 5-hydroxytryptamine receptor 2C (Homo sapiens)
Sequence (P28335 whole entry): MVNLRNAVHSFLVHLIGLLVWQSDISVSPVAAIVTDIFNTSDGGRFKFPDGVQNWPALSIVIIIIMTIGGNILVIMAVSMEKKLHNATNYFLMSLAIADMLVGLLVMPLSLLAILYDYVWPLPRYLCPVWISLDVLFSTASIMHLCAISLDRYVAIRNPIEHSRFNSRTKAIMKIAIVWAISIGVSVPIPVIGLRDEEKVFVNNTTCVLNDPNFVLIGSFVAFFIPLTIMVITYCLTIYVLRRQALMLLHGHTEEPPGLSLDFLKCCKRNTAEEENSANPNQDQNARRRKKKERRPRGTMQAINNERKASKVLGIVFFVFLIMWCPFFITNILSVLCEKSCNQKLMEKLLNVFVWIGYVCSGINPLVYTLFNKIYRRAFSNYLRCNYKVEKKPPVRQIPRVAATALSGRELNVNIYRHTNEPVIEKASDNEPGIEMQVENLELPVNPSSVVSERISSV
Assay: Displacement of [3H]Mesulergine from human recombinant serotonin 5-HT2C expressed in CHO-K1 cells
ASSAY ENDPOINT: IC50

Examples with their reported IC50 follow.
COMPOUND: CN(C)CCNC(=O)c1nc(-c2cccnc2)no1
IC50: > 10 µM
--
COMPOUND: Cc1noc2ncnc(NCCN3CCOCC3)c12
IC50: > 10 µM
--
COMPOUND: Cc1cc(C(=O)NCCN2CCOCC2)on1
IC50: > 10 µM
--
COMPOUND: CC(=O)N(CCN(C)C)c1nc2c(F)cccc2s1
IC50: 2 µM

Moving on to the next compound.
// IC50 lookup, key: CCn1ncc(C2=NOC(C(=O)NCCN3CCOCC3)C2)c1C (stereo not given)
> 10 µM
